target: Melanocyte-stimulating hormone receptor (Homo sapiens, UniProt Q01726); experiment: biochemical; format: cell-based, HEK293
Sequence (Q01726 whole entry): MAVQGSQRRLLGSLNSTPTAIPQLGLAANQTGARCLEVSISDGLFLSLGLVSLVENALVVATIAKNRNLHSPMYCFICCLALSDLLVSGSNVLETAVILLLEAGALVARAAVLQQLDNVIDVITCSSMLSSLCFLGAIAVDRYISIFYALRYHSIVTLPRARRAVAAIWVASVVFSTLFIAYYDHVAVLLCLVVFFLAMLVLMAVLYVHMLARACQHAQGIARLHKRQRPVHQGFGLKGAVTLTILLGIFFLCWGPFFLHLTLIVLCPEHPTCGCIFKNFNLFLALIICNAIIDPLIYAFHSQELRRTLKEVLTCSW
Quick reference: IC50 of the listed items.
Report only the number, with the unit nM understood.

The cases that follow already have their IC50 on record.
The reported IC50 of the compound `CCCC[C@H](NC(C)=O)C(=O)N[C@H]1CC(=O)NCCCC[C@@H](C(N)=O)NC(=O)[C@H](Cc2c[nH]c3ccccc23)NC(=O)[C@@H]2CCCN2C(=O)[C@@H](Cc2ccc3ccccc3c2)NC(=O)[C@H](Cc2cnc[nH]2)NC1=O` was 600

The reported IC50 of the compound `CCCC[C@H](NC(C)=O)C(=O)N[C@H]1CC(=O)NCCCC[C@@H](C(N)=O)NC(=O)[C@H](Cc2c[nH]c3ccccc23)NC(=O)[C@@H]2C[C@@H](NC(=N)N)CN2C(=O)[C@@H](Cc2ccc3ccccc3c2)NC(=O)[C@H](Cc2cnc[nH]2)NC1=O` was 400

We now examine a further compound.
The reported IC50 of the compound `CCCC[C@H](NC(C)=O)C(=O)N[C@H]1CC(=O)NCCCC[C@@H](C(N)=O)NC(=O)[C@H](Cc2c[nH]c3ccccc23)NC(=O)[C@H](CCCN=C(N)N)NC(=O)[C@@H](Cc2ccccc2)NC(=O)[C@@H]2C[C@@H](N=C(N)N)CN2C1=O` was 2.7

###

Quick reference: IC50 of the listed items.
molecular target: Melanocyte-stimulating hormone receptor (Homo sapiens); experiment: biochemical; format: cell-based, HEK293
Report only the number, with the unit nM understood.

The cases that follow already have their IC50 on record.
The reported IC50 of the molecule `CCCC[C@H](NC(=O)[C@@H](NC(=O)[C@H](Cc1ccc(O)cc1)NC(C)=O)C(C)C)C(=O)NCC(=O)N[C@@H](Cc1cnc[nH]1)C(=O)N[C@H](Cc1ccccc1)C(=O)N1C[C@H](NC(=N)N)C[C@H]1C(=O)N[C@@H](Cc1c[nH]c2ccccc12)C(=O)N[C@@H](CC(=O)O)C(=O)N[C@@H](CCCNC(=N)N)C(=O)N[C@@H](Cc1ccccc1)C(=O)NCC(N)=O` was 830

The reported IC50 of the molecule `CCCC[C@H](NC(=O)[C@@H](NC(=O)[C@H](Cc1ccc(O)cc1)NC(C)=O)C(C)C)C(=O)NCC(=O)N[C@@H](Cc1cnc[nH]1)C(=O)N[C@H](Cc1ccccc1)C(=O)N1C[C@@H](NC(=N)N)C[C@H]1C(=O)N[C@@H](Cc1c[nH]c2ccccc12)C(=O)N[C@@H](CC(=O)O)C(=O)N[C@@H](CCCNC(=N)N)C(=O)N[C@@H](Cc1ccccc1)C(=O)NCC(N)=O` was 1000

We now examine a further molecule.
The reported IC50 of the molecule `CCCC[C@H](NC(=O)[C@@H](NC(=O)[C@H](Cc1ccc(O)cc1)NC(C)=O)C(C)C)C(=O)NCC(=O)N[C@@H](Cc1cnc[nH]1)C(=O)N[C@H](Cc1ccccc1)C(=O)N1CCC[C@H]1C(=O)N[C@@H](Cc1c[nH]c2ccccc12)C(=O)N[C@@H](CC(=O)O)C(=O)N[C@@H](CCCNC(=N)N)C(=O)N[C@@H](Cc1ccccc1)C(=O)NCC(N)=O` was 190

Values from ChEMBL document CHEMBL1136994
